Test system: RPMI-8226
ASSAY_PROTOCOL: NCI tumour cell line growth inhibition, 48 h
Activity calls are given as the source filed them. Rule as the data show it: active = GI50 up to about 1.1 µM and inactive = higher.
One label from this list, please: true (1) (active), false (0) (inactive)

{"columns": ["COMPOUND", "DISCRETE_LABEL"],
 "data": [
  ["CCC(C#N)NC(=O)NC(C#N)CC (stereo unspecified)", "false (0)"],
  ["Nc1nc(O)c(N)c(NCCOCP(=O)(O)O)n1", "false (0)"],
  ["O=C1C(=Cc2ccc([N+](=O)[O-])o2)C(=O)N(CCc2ccccc2)S(=O)(=O)N1CCc1ccccc1", "false (0)"],
  ["Nc1nc2c(ncn2Cc2ccccc2CO)c(=O)[nH]1", "false (0)"]
]}

Hey, what did the test say about N#CC(/N=N/c1ccc(Cl)cc1)c1nc2ccccc2o1 (stereo unspecified) ? false (0)

Input CC(=O)OC(CCC1(C)OC1COc1ccc(CCNC(=O)c2ccccc2)cc1)C(C)(C)OC(C)=O (stereo unspecified) false (0)

Input `CC1(C)COC(c2ccc(C(=O)c3ccc(Cl)cc3)cc2)=N1` false (0)

Input C=C1C(=O)O[C@H]2C3C(=C(C)CC[C@@H]12)C(=O)[C@@H]1OC31C (stereo partly specified) true (1)

* * *

List of GI50 values.
Test system: HOP-62
ASSAY_PROTOCOL: NCI tumour cell line growth inhibition, 48 h
The source made the active and inactive calls. No stated cut-off is given here; in the data, active = GI50 up to about 1.1 µM and inactive = higher.

{"columns": ["COMPOUND", "READOUT_VALUE"],
 "data": [
  ["COc1cc([C@@H]2c3cc4c(cc3C(N)C3COC(=O)[C@@H]32)OCO4)cc(OC)c1O (stereo not given in full)", "2.88 µM (inactive)"]
]}

Endpoint output: GI50 of C=C1CCC([N+](=O)[O-])[C@](C)(N=O)CC[C@@H]2C1CC2(C)C (stereo not given in full) . Value? 38.3 µM (inactive)

Input Cc1cc(C)nc(SC(C)C(=O)N/N=C/c2ccc(OCc3ccccc3)cc2)n1 (stereo not given) 36 µM (inactive)

Input N#CC1(C#N)NC(c2ccccc2)C(C#N)(C#N)NC1c1ccccc1 (stereo not given) > 100 µM (inactive)

Input COC(=O)C(C(=O)OC)C1CCCC(=O)C1 (stereo not given) > 100 µM (inactive)

Input `Nc1ccccc1C#CC(=O)c1cccc(C(F)(F)F)c1` 7.24 µM (inactive)

Input CCOC(=O)C(=[N+]=[N-])C(=O)CN1C(=O)C2CC(C)=C(C)CC2C1O (stereo not given) > 100 µM (inactive)

Input Cn1c2c(c3ccccc31)CCN1C(=O)CN(C(=O)C3CCCCC3)CC21 (stereo not given) > 100 µM (inactive)

Input Cc1cc(C)c(C2[C@H]3C(=O)N(c4ccc(Cc5ccc(N6C(=O)[C@@H]7ON(c8ccccc8)C(c8c(C)cc(C)cc8C)[C@@H]7C6=O)cc5)cc4)C(=O)[C@H]3ON2c2ccccc2)c(C)c1 (stereo not given in full) > 100 µM (inactive)

Input CC(=O)O[C@H]1CCC(C)=CCC[C@@]2(C)C(CC[C@@H]2[C@@H](C)/C=C/C(C)C)c2ccc(cc2C(=O)O)C1 (stereo not given in full) 2.45 µM (inactive)

* * *

Tested on: SK-MEL-28
ASSAY_PROTOCOL: NCI tumour cell line growth inhibition, 48 h
Activity calls are given as the source filed them. Rule as the data show it: active = GI50 up to about 1.1 µM and inactive = higher.
List of GI50 values.

These recorded examples may help you get a feel for the data.
{"columns": ["COMPOUND", "SYSTEM_NAME", "GI50"],
 "data": [
  ["CN(C)/N=N/c1nc2c(c(=O)n(C)c(=O)n2C)n1CC(O)CO (stereo not given)", "SK-MEL-28", "> 100 µM (inactive)"],
  ["COC(=O)C1=CC(=O)C(C(=O)Nc2ccc(OC)cc2)C(c2ccccc2)O1 (stereo not given)", "SK-MEL-28", "37.8 µM (inactive)"],
  ["O=S(=O)(O)c1cc(O)c2c(O)c(/N=N/c3cccc4ccccc34)c(S(=O)(=O)O)cc2c1", "SK-MEL-28", "> 100 µM (inactive)"],
  ["O=C(O)c1ccc2nc(-c3ccccn3)c(-c3ccccn3)nc2c1", "SK-MEL-28", "> 100 µM (inactive)"],
  ["C[C@@H](C[C@@H](O)[C@H](O)C(C)(C)O)[C@H]1CC=C2[C@]3(C)[C@H](O)C[C@H]4C(C)(C)[C@H](O)CC[C@]4(C)[C@H]3CC[C@@]21C", "SK-MEL-28", "14.4 µM (inactive)"]
]}

Endpoint output: GI50 of `COc1cc(NS(C)(=O)=O)ccc1NCc1c[nH]c2ccc3nc(C)ccc3c12` . Value? > 100 µM (inactive)

Input `COc1ccc(OC)c2c1ccc1c(C)c3ccccc3c(C)c12` > 100 µM (inactive)

Input CN1C(=O)C(=O)c2cc3c(c4c2c1cc1ccccc14)OCO3 [CEPHARADIONE A] 40.5 µM (inactive)

Input NC1=NCCC1(c1ccccc1)c1ccccn1 (stereo not given) > 100 µM (inactive)

Input `CN(CCCCN)c1ccc2c(=O)[nH][nH]c(=O)c2c1` > 100 µM (inactive)

Input `COc1cc(C)c(O)c(C(=O)O)c1` > 100 µM (inactive)

Input `c1cc(C[S+]2CCCC2)sc1C[S+]1CCCC1` > 10 µM (inactive)

Input C=C1[C@H](OCC(C)C)[C@@H](OC(=O)C(C)CC)[C@@H](O)C(C)(C)/C=C/[C@H](C)C(=O)[C@@]2(O)C[C@H](C)[C@H](O)[C@@H]2[C@H]1OC(=O)C(C)CC (stereo not given in full) 10.2 µM (inactive)

Input `O=C1/C(=C/c2ccccc2S)N=C(c2ccccc2)N1c1nc2c(Cl)cc(Cl)cc2s1` 35.4 µM (inactive)

Input `O=c1c(Br)cc2nc3ccccc3sc-2c1Br` > 100 µM (inactive)

Input CC1=NN(c2ccccc2)C(=O)C1/N=N/c1ccc(S(N)(=O)=O)cc1 (stereo not given) > 100 µM (inactive)

Input `N#CCc1nc(-c2cc3c(ccc4ccccc43)oc2=O)cs1` 72.6 µM (inactive)

Input `CC1CCN(CC(=O)N2c3ccccc3Sc3cc4ccccc4cc32)CC1` > 100 µM (inactive)

Input `CC1(C)C(c2ccccc2)=NN(O)c2ccccc21` > 100 µM (inactive)

Input `CCCCCC/C=C\CCCCCCCCCc1c(O)c(OC)cc(O)c1CN(C)C` 13.2 µM (inactive)

* * *

System: T47D
ASSAY_PROTOCOL: NCI tumour cell line growth inhibition, 48 h
The source made the active and inactive calls. No stated cut-off is given here; in the data, active = GI50 up to about 1.1 µM and inactive = higher.
PARAMETER: GI50

These recorded examples may help you get a feel for the data.
{"columns": ["MOLECULE", "GI50"],
 "data": [
  ["Nc1ccn(C2CCC(CO)O2)c(=S)n1 (centres undefined)", "> 100 µM (inactive)"],
  ["CC1(C)C(O)c2ccccc2OC1N1CCN(C2Oc3ccccc3C(O)C2(C)C)CC1 (centres undefined)", "> 100 µM (inactive)"],
  ["Cn1c2ccccc2c(=NNc2ccc(S(N)(=O)=O)cc2)c2ccccc21", "5.45 µM (inactive)"],
  ["CNC(=S)N/N=C/c1ccc([N+](=O)[O-])s1", "> 10 µM (inactive)"],
  ["COc1ccc(OC)c(C(=O)c2cccc(C(=O)c3cc(OC)ccc3OC)n2)c1", "29.6 µM (inactive)"]
]}

Endpoint output: GI50 of O=C1CCCCCCCCCCC1CN1CCOCC1 (centres undefined) . Value? > 100 µM (inactive)

Input `N[C@@H](Cc1ccccc1)C(=O)N1CCC[C@@H]1P(=O)(Oc1ccccc1)Oc1ccccc1` > 100 µM (inactive)

Input C=C1CC(Cn2cc(C)c(=O)[nH]c2=O)(c2ccc(Cl)cc2)OC1=O (centres undefined) 2.08 µM (inactive)

Input `COc1ccc(-c2cc3ccccc3oc2=O)cc1OC` > 100 µM (inactive)

* * *

Test system: OVCAR-5
ASSAY_PROTOCOL: NCI tumour cell line growth inhibition, 48 h
Activity calls are given as the source filed them. No stated cut-off is given here; in the data, active = GI50 up to about 1.1 µM and inactive = higher.
PARAMETER: GI50

These recorded examples may help you get a feel for the data.
{"columns": ["MOLECULE", "GI50"],
 "data": [
  ["O=C1C2=C(CC3C(C2)C3(Br)Br)C(=O)C2=C1CC1C(C2)C1(Br)Br (stereo not given)", "> 100 µM (inactive)"],
  ["CC(=O)CSc1c(-c2ccccc2)c(=O)n(-c2ccccc2)c(=S)n1-c1ccccc1", "> 100 µM (inactive)"]
]}

API: value(readout= GI50, system= OVCAR-5, query= `CC[N+](CC)(CC)Cc1cn(S(=O)(=O)c2ccccc2)c2ccccc12` ) > 100 µM (inactive)

Input `O=C(/C=C/c1cccc(Oc2ccccc2)c1)NCc1ccc(C(=O)NCCc2ccccc2)cc1` > 100 µM (inactive)

* * *

Tested on: T47D
ASSAY_PROTOCOL: NCI tumour cell line growth inhibition, 48 h
Active and inactive are the calls of the source. Rule as the data show it: active = GI50 up to about 1.1 µM and inactive = higher.
PARAMETER: GI50

These recorded examples may help you get a feel for the data.
{"columns": ["MOLECULE", "READOUT_VALUE"],
 "data": [
  ["CC(=O)CSc1c(-c2ccccc2)c(=O)n(-c2ccccc2)c(=S)n1-c1ccccc1", "> 100 µM (inactive)"],
  ["S=C(/C=C1\\SC(=N\\c2ccccc2)/C(=N/c2ccccc2)N1c1ccccc1)Nc1ccccc1", "> 100 µM (inactive)"],
  ["N#C[BH2-][n+]1ccc(C(=O)NNCc2cccc(C(F)(F)F)c2)cc1", "20 µM (inactive)"],
  ["COc1ccc(-c2cc(-c3ccc(O)cc3O)c(C#N)c(=O)[nH]2)cc1", "93.3 µM (inactive)"],
  ["CCCCCCCCCC[C@@H](O)[C@H]1CC[C@H]([C@H]2CC[C@H]([C@H](O)CCCCCCCCCC[C@@H]3CC(CC(C)=O)C(=O)O3)O2)O1 (some centres undefined)", "> 17.2 µM (inactive)"],
  ["Cc1cc(C)nc(SC(C)C(=O)N/N=C/c2ccc(OCc3ccccc3)cc2)n1 (centres undefined)", "9.53 µM (inactive)"],
  ["N[C@H]1CCCC[C@@H]1N1C(=O)c2ccccc2C1(O)c1ccc(Cl)cc1 (some centres undefined)", "4.99 µM (inactive)"],
  ["CN(C)CCCCN1c2ccccc2Sc2ccc(C(=O)c3ccccc3)cc21", "3.59 µM (inactive)"]
]}

Continue with the next molecule.
Endpoint output: GI50 of CCOC(=O)C1C(c2ccc(OC)cc2)c2c(nn(-c3ccccc3)c2O)CC1(C)O (centres undefined) . Value? 12.9 µM (inactive)
